The reported numbers originate from ChEMBL document CHEMBL1137264.

# Tested On: UniProt O43570
# Sequence (O43570 whole entry): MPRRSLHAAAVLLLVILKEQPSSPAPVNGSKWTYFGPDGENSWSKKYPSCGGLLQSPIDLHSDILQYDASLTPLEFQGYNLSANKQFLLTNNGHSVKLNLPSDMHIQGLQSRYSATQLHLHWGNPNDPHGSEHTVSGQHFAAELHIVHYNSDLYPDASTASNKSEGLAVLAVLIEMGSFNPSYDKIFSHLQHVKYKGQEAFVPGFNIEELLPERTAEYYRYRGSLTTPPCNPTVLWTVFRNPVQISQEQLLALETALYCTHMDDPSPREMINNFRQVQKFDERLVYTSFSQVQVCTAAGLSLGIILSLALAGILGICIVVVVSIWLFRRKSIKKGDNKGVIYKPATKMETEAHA
pKi: −log10 of the molar value.
Decision: pKi compared against 6; not below it gives rule met, below it gives rule not met.

Previously resolved entries follow.
Task item: Decide: is the reported value of pKi for Cc1cc(S(N)(=O)=O)c(S(=O)(=O)CC(=O)O)cc1Cl equal to or greater than 6?
Reply: rule not met

Task item: Decide: pKi of CC/C(=N/Nc1ccc([N+](=O)[O-])cc1)Sc1cc(Cl)c(C)cc1S(N)(=O)=O >= 6?
Reply: rule not met

Task item: In plain terms: is recorded pKi at least 6 for CCOC(=O)c1cc(S(N)(=O)=O)c(S)cc1Cl ?
Reply: rule met

Task item: Hi, just wondering whether NS(=O)(=O)c1cc(C(=O)N2CCCC2)c(Cl)cc1SSc1cc(Cl)c(C(=O)N2CCCC2)cc1S(N)(=O)=O shows pKi of 6 or higher.
Reply: rule met

More entries:
Task item: Hi team, for CSc1cc2c(cc1S(N)(=O)=O)S(=O)(=O)NCN2 , is the recorded pKi at or above 6?
Reply: rule met

Task item: Confirm if pKi reported for the molecule NS(=O)(=O)c1cc2c(cc1SSc1cc3c(cc1S(N)(=O)=O)S(=O)(=O)NCN3)NCNS2(=O)=O is 6 or above.
Reply: rule not met

Task item: API: above_or_equal(metric=pKi, cutoff=6) for item Cc1cc(S(N)(=O)=O)c(S(=O)(=O)C(C)C(=O)NN)cc1Cl (stereo not drawn)
Reply: rule not met

---

# Tested On: Carbonic anhydrase 1 (Homo sapiens, UniProt P00915)
# Sequence (P00915 whole entry): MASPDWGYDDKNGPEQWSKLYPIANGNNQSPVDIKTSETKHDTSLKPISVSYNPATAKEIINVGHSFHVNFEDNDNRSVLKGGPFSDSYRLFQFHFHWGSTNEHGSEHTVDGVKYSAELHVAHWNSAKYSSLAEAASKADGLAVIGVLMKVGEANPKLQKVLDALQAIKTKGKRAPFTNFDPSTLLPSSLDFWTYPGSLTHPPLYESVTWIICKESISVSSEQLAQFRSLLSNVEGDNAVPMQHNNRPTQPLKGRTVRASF
pKi: −log10 of the molar value.
Quick rule: pKi of at least 5 means yes (1), below that means no (0).

A selection of reference data follows.
Task item: Could you please find out whether NS(=O)(=O)c1cc2c(cc1SSc1cc3c(cc1S(N)(=O)=O)S(=O)(=O)NCN3)NCNS2(=O)=O has pKi that meets 5 or exceeds it?
Reply: no (0)

Task item: Identify whether the reported pKi of the following molecule is 5 or greater: NS(=O)(=O)c1cc(C(=O)N2CCCC2)c(Cl)cc1SSc1cc(Cl)c(C(=O)N2CCCC2)cc1S(N)(=O)=O
Reply: no (0)

Task item: Does the molecule Cc1cc(S(N)(=O)=O)c(S(=O)(=O)C(C)C(=O)O)cc1Cl (configuration not stated) have recorded pKi that is 5 or more?
Reply: no (0)

---
Task item: Could you verify whether the entry NS(=O)(=O)c1cc(C(=O)N2CCCC2)c(Cl)cc1S shows pKi of no less than 5?
Reply: yes (1)

---

Record: pKi reported on Carbonic anhydrase 1 (Homo sapiens).
One number for each entry, as −log10 of the molar value.

Carbonic anhydrase 1 (Homo sapiens) pKi of CSc1cc2c(cc1S(N)(=O)=O)S(=O)(=O)NCN2 is 4.96

Field pKi (Carbonic anhydrase 1 (Homo sapiens)), entry Cc1cc(S(N)(=O)=O)c(S(=O)(=O)CC(=O)NN)cc1Cl : 5.11

Shift focus to the following entry.
Per the reported Carbonic anhydrase 1 (Homo sapiens) data, CCOC(=O)c1cc(S(N)(=O)=O)c(SSc2cc(Cl)c(C(=O)OCC)cc2S(N)(=O)=O)cc1Cl has pKi of 5.11
